Reference for the values: patent US20240116985A1

# target.under.test: full-length beta-Catenin (Uniprot ID P35222) (Homo sapiens (Human)) (UniProt P35222)
# assay.info: fluorescence polarization competition; full-length beta-catenin, competitor probe 5FAM-TCF4(10-53)
pIC50: −log10 of the molar value. Starred links: 1 amine or outer side, 2 acyl side, 3 side chain; linkers in the order of their positions; H or OH if unused. Positions of bridges follow the written chain, without caps; N, C: chain ends. Non-standard residues stand in square brackets, D forms with d. Primed or numbered codes have the meaning given here. PyrS2″ = (S)-3-amino-1-((pent-4-en-1-yloxy)carbonyl)pyrrolidine-3-carboxylic acid (stapling residue), C=CCCCOC(=O)N1CC[C@@](N[*:1])(C(=O)[*:2])C1; B5(32) = 2-amino-2-(pent-4-en-1-yl)hept-6-enoic acid (bis-4-pentenylglycine, two alkene side chains), C=CCCCC(CCCC=C)(N[*:1])C(=O)[*:2]; TfeGA = (S)-2-amino-3-((carboxymethyl)(2,2,2-trifluoroethyl)amino)propanoic acid, O=C([C@H](CN(CC(=O)[*:3])CC(F)(F)F)N[*:1])[*:2]; PyrS2 = (S)-3-amino-1-((pent-4-en-1-yloxy)carbonyl)pyrrolidine-3-carboxylic acid, C=CCCCOC(=O)N1CC[C@@](N[*:1])(C(=O)[*:2])C1; B5(3) = 2,2-bis(4-pentenyl)glycine (stitching residue), C=CCCCC(CCCC=C)(N[*:1])C(=O)[*:2]; Phe(3-COOH) = N[C@@H](Cc1cccc(C(=O)O)c1)C(=O)O; Bta = N[C@@H](Cc1csc2ccccc12)C(=O)O; αAllylPro = C=CC[C@@]1(C(=O)O)CCCN1; tBuAla = CC(C)(C)C[C@H](N)C(=O)O; 3Thi = N[C@@H](Cc1ccsc1)C(=O)O; Aib = CC(C)(N)C(=O)O
measured.metric: pIC50

Ac-[αAllylPro]D[tBuAla][B5(3)]D[Phe(3-COOH)]AAFF[PyrS2″][3Thi][Bta]S-NH2 (staple 1-4, 4-11; also: later eluting HPLC isomer) [I-983]	6.93
Ac-[αAllylPro]D[tBuAla][B5(32)]D[Phe(3-COOH)]AAFL[PyrS2][3Thi][Bta]NLLL-NH2 (staple 1-4, 4-11; also: earlier eluting staple isomer (HPLC peak)) [I-2275]	6.93
Ac-[αAllylPro]D[tBuAla][B5(3)]D[TfeGA]AAFF[PyrS2″]Y[Bta]Q-NH2 (staple 1-4, 4-11) [I-989]	7.06
Ac-[αAllylPro]D[tBuAla][B5(3)]D[Phe(3-COOH)]AAFL[PyrS2″][3Thi][Bta]NA[Aib]A[Aib]A[Aib]A-NH2 (staple 1-4, 4-11) [I-2273]	6.97
